Molecular target: recombinant human AMPK complex 1 (containing α1β1γ1) (Homo sapiens, UniProt Q13131+Q9Y478)
Sequence (Q13131 whole entry): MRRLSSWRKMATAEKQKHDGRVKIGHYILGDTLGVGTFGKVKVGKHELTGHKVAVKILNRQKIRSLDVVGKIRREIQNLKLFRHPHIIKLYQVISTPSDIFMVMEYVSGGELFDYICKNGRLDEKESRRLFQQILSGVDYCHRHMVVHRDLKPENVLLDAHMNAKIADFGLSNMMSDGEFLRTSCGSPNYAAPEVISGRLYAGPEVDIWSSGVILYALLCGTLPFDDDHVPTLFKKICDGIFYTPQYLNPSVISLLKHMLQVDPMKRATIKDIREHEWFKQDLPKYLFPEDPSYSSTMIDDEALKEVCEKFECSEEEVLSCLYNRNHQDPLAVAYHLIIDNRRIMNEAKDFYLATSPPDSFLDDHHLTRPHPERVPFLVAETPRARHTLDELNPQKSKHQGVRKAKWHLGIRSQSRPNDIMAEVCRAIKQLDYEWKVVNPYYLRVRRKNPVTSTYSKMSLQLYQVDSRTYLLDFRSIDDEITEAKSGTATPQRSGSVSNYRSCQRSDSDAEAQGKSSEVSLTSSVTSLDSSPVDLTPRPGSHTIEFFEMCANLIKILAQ
Sequence (Q9Y478 whole entry): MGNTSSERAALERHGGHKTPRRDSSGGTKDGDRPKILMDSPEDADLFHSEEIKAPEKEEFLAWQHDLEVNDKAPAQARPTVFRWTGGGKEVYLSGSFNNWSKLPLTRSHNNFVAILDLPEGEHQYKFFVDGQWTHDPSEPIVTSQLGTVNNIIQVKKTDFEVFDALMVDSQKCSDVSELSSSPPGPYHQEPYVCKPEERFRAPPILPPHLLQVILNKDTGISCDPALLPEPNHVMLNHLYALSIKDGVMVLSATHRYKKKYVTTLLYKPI
Sequence (P54619 whole entry partner): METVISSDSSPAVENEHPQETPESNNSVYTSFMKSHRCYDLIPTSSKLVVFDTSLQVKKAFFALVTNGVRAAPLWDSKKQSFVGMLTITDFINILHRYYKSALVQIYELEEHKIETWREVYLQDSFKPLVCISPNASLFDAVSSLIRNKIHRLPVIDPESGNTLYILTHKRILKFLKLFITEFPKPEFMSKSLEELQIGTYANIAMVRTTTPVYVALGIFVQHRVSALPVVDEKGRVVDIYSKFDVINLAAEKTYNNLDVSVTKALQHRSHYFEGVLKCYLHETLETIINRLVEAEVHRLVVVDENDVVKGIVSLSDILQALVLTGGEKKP
Assay: In vitro AMPK activation assay ([…])
Assay type: biochemical
Conditions: recombinant human AMPK complex 1 (α1β1γ1); basal activity subtracted, expressed as % maximum AMP activation
outcome.measure: Emax

Emax in this record for `O=C(O)CSc1nc2cc(C#Cc3cccc(O)c3)c(Cl)cc2[nH]1` : > 40%

For reference, reported Emax for `O=C(O)CSc1nc2cc(C#Cc3ccccc3[N+](=O)[O-])c(Cl)cc2[nH]1` stands at > 40%

Lab note: `O=C(O)CSc1nc2cc(-c3cc4ccccc4s3)c(Cl)cc2[nH]1` gave Emax of > 40%

Given item `COc1ccc2cc(C#Cc3cc4nc(SCC(=O)O)[nH]c4cc3Cl)ccc2c1` , the value recorded as its Emax is > 40%

Sample `O=C(O)CSc1nc2cc(-c3cccc(F)c3)c(Cl)cc2[nH]1` ; Emax observed: > 40%

Form field Emax, entry `O=C(O)CCc1nc2cc(-c3ccccc3)c(Cl)cc2[nH]1` : > 40%

Per the record, `O=C(O)CSc1nc2cc(-c3cc4ccccc4o3)c(Cl)cc2[nH]1` has Emax of > 40%

// sample `O=C(O)CSc1nc2cc(-c3ccc(O)cc3)c(Cl)cc2[nH]1` , its Emax was > 40%

Per the records, this compound ( `CC(=O)NCc1ccc(-c2cc3nc(SCC(=O)O)[nH]c3cc2Cl)cc1` ) has Emax equal to > 40%

The compound identified as `O=C(O)CSc1nc2cc(-c3ccc(-n4cccn4)cc3)c(Cl)cc2[nH]1` registered its Emax at > 40%

Just so you know, measured Emax for `O=C(O)CSc1nc2cc(C#Cc3ccc(Br)cc3)c(Cl)cc2[nH]1` came out at > 40%

Emax measured on `O=C(O)CSc1nc2cc(-c3ccc4cn[nH]c4c3)c(Cl)cc2[nH]1` = > 40%

Lab note: C[S+]([O-])c1ccc(-c2cc3nc(SCC(=O)O)[nH]c3cc2Cl)cc1 (stereo not drawn) gave Emax of > 40%

Record `CC(C)Cc1ccc(-c2cc3nc(SCC(=O)O)[nH]c3cc2Cl)cc1` , field Emax: > 40%

Per the records, this compound ( `O=C(O)CSc1nc2cc(C#Cc3ccc(F)cc3)c(Cl)cc2[nH]1` ) has Emax equal to > 40%

For `CS(=O)(=O)Nc1ccc(C#Cc2cc3nc(SCC(=O)O)[nH]c3cc2Cl)cc1` the compound record lists Emax as > 40%

Lab note: measured Emax of `CSc1ccc(-c2cc3nc(SCC(=O)O)[nH]c3cc2Cl)cc1` was > 40%

Lab note: measured Emax of `O=C(O)CSc1nc2cc(-c3ccc4c(c3)OCO4)c(Cl)cc2[nH]1` was > 40%
